Target: T1, Cynomolgus monkey PD-1 expressed on CHO-K1 cells (CHO-K1/cyno PD-1) (cynomolgus monkey, UniProt B0LAJ3 25-288)
T1 construct: also called CHO-K1 cells overexpressing cynomolgus monkey PD-1
T1 sequence (B0LAJ3 entry or part of it limits assumed): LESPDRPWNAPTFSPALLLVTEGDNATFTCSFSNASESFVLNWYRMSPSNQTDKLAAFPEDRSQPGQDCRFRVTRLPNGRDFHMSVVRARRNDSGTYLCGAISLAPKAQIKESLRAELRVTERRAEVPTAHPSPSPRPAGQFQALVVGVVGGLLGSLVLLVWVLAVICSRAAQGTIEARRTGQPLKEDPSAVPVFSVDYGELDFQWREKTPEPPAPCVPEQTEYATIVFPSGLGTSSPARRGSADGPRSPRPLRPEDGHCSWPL
Test: FACS, CHO-K1/cyno PD-1 cells
Please respond with reported MFI Maximum for every item in the list.

Worked examples, 3 binders total:
PR000679 (antibody, human IgG4 S228P, kappa, V domains shown, Fully human recombinant H2L2 antibody, human IgG4, kappa light chain; also called 4004_6C11C6) VH: QVQLVQSGTEVKKPGSSVKVSCKASGGTFSSYAISWVRQAPGQGLEWMGGIIPIFDTVSSAQKFQGRVTITADKSTSTAYMELFSLRSEDTAVYYCARSPPYSSNWYQYFQHWGQGTLVTVSS VL: DIQMTQSPSTLSASVGDRVTITCRASQTISIWLAWYQQKPGKAPKLLIYKASSLESGVPSRFSGSGSGTEFTLTISSLQPDDFATYYCQQFNSYWTFGQGTKVEIKR : 24800
PR000675 (antibody, human IgG4 S228P, kappa, V domains shown, Fully human recombinant H2L2 antibody, human IgG4, kappa light chain; also called 4004_19G8F2) VH: EVQLLESGGGLVQPGGSLRLSCVDSGFTFSSYAMTWVRQAPGKGLEWVSGISGSGYSTYYADSVKGRFTISRDNSKKTLYLQMNSLRAEDTAVYYCAELSLDYWGQGTLVTVSS VL: EIVLTQSPATLSLSPGERATLSCRASQSVSRYLAWYQQKPGQAPRLLMHDAANRATGLPARFNGSGSGTDFTLTISSLEPEDFAVYYCQQRNNWPLTFGGGTKVEIKR : 36800
PR000673 (antibody, human IgG4 S228P, kappa, V domains shown, Fully human recombinant H2L2 antibody, human IgG4, kappa light chain; also called 4004_10H9A12) VH: QVQLVESGGGVVQPGRSLRLSCAASGFIFSNYGMHWVRQAPGKGLEWVAVIWYDGSKKYYGDSVKGRFTISRDNSKNTLYLQMNSLRDEDTAVYFCARNDDYWGQGTLVTVSS VL: EIVLTQSPATLSFSPGERATLSCRASQSVSSDLAWYQQKPGQAPSLLIYDASNRATGIPARFSGSGSGTDFTLTISSLEPEDFAVYYCHQRNNWPLTFGGGTKVEIKR : 38200

Now, please, on to the next binder.
Lookup: Which MFI Maximum is reported for this binder? PR000150 (pembrolizumab analog) (antibody, human IgG4 S228P, kappa, V domains shown, Anti-PD-1 positive control; also called positive control antibody pembrolizumab) VH: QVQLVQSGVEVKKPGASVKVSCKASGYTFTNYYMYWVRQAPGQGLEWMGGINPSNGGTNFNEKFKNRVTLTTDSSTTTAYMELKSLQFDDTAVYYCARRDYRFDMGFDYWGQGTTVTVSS VL: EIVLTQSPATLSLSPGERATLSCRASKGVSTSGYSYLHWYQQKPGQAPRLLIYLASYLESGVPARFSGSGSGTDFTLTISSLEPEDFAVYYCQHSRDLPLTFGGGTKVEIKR
Found: 19100
